Measured PAMPA_R1, listed per entry for reference.
Settings: PAMPA
Where a SMILES comes first, the peptide text is derived from it. [ ]: non-standard residue; d: D form. NMeL = CN[C@@H](CC(C)C)C(=O)O; dNMeL = CN[C@H](CC(C)C)C(=O)O; NMeA = CN[C@@H](C)C(=O)O; dNMeA = CN[C@H](C)C(=O)O
The reply should be a number, written without any unit.

molecule	PAMPA_R1
CC[C@@H](C)[C@H]1NC(=O)[C@@H](CC(C)C)NC(=O)[C@H](C(C)C)NC(=O)[C@@H](CC(C)C)N(C)C(=O)[C@@H]2CCCN2C(=O)[C@H](C)NC(=O)[C@H](CC(C)C)N(C)C(=O)[C@H]2CCCN2C(=O)[C@H](C)N(C)C(=O)[C@@H](CC(C)C)N(C)C(=O)[C@@H]2CCCN2C1=O [Design D11.5] (cyclo(AP[dNMeL]V[dL][dI]P[dNMeL][NMeA][dP][NMeL]))	2.56E-06

Attention now shifts to the item below.
Name the recorded PAMPA_R1 for CC[C@H](C)[C@@H]1NC(=O)[C@@H](C)N(C)C(=O)[C@H]2CCCN2C(=O)[C@H]2CCCN2C(=O)[C@H](Cc2ccccc2)NC(=O)[C@@H](CC(C)C)NC(=O)[C@@H](CC(C)C)N(C)C(=O)[C@@H]2CCCN2C1=O [Design D8.17, PRO *DLEU DLEU PHE DPRO DPRO *DALA ILE] (cyclo(F[dP][dP][dNMeA]IP[dNMeL][dL])) . 5.94E-07

----------
Assay: Pharmacokinetics and oral bioavailability of D11.3 in male Swiss albino mice (IV, PO, SQ)
Assay type: in vivo
Conditions: mouse, in vivo; IV 1.00 mg/kg; read-out: MRT0-last
Where a SMILES comes first, the peptide text is derived from it. [ ]: non-standard residue; d: D form. dNMeI = CC[C@@H](C)[C@@H](NC)C(=O)O; NMeL = CN[C@@H](CC(C)C)C(=O)O
endpoint: MRT last (h)
Lab book: enter the figure in h, no units written.

Name the recorded MRT last for CC[C@@H](C)[C@H]1NC(=O)[C@H]([C@@H](C)CC)NC(=O)[C@H](CC(C)C)N(C)C(=O)[C@H]2CCCN2C(=O)[C@@H]([C@H](C)CC)NC(=O)[C@@H]([C@H](C)CC)N(C)C(=O)[C@H](CC(C)C)NC(=O)[C@H]2CCCN2C(=O)[C@@H]2CCCN2C(=O)[C@H](C(C)C)NC(=O)[C@H]2CCCN2C1=O [Design D11.3] (cyclo(I[dI][dP]VP[dP]L[dNMeI][dI][dP][NMeL])) . 4.64

----------
Measured Papp, listed per entry for reference.
Test: in vitro
Details: PAMPA, PAMPA_Papp_Avg
Where a SMILES comes first, the peptide text is derived from it. [ ]: non-standard residue; d: D form. dNMeL = CN[C@H](CC(C)C)C(=O)O; NMeA = CN[C@@H](C)C(=O)O; dNMeA = CN[C@H](C)C(=O)O

Examples with answers:
compound	endpoint	reported.result
CC[C@H](C)[C@@H]1NC(=O)[C@H]2CCCN2C(=O)[C@@H]2CCCN2C(=O)[C@@H](C(C)C)NC(=O)[C@@H](C)N(C)C(=O)[C@H](C)N(C)C(=O)[C@@H](CC(C)C)N(C)C(=O)[C@@H](C(C)C)NC1=O [Design D8.26, DVAL *DLEU *ALA *DALA DVAL PRO DPRO ILE] (cyclo(I[dV][dNMeL][NMeA][dNMeA][dV]P[dP]))	Papp	0.255 ×10⁻⁶ cm/s
CC[C@@H](C)[C@H]1NC(=O)[C@H]2CCCN2C(=O)[C@@H](C)NC(=O)[C@@H](CC(C)C)N(C)C(=O)[C@H]([C@@H](C)CC)NC(=O)[C@@H](C(C)C)NC(=O)[C@@H](CC(C)C)N(C)C(=O)[C@@H]2CCCN2C(=O)[C@@H]2CCCN2C1=O [Design D9.26] (cyclo(I[dNMeL][dA][dP][dI]PP[dNMeL][dV]))	Papp	2.32 ×10⁻⁶ cm/s

Attention now shifts to the item below.
Name the recorded Papp for CC(C)C[C@@H]1C(=O)N[C@H](CC(C)C)C(=O)N2CCC[C@@H]2C(=O)N2CCC[C@H]2C(=O)N(C)[C@H](CC(C)C)C(=O)N[C@H](CC(C)C)C(=O)N2CCC[C@@H]2C(=O)N2CCC[C@H]2C(=O)N1C [Design D8.4, DPRO PRO *DLEU DLEU DPRO PRO *DLEU DLEU] (cyclo([dNMeL][dL][dP]P[dNMeL][dL][dP]P)) . 0.136 ×10⁻⁶ cm/s
